Ref: patent US11844813

Assayed target: Human His-tagged RBP4 (residues 19-201), soluble (human, UniProt P02753 19-201)
Test description: SPR (Biacore T200), single-cycle kinetics, RBP4 immobilised on a CM5 chip, RS3 injected at 937.5-15000 nM, without A1120; steady-state analysis; one representative experiment of four
Value kind: pKd
Keep it numeric: pKd is minus log10 of the concentration in mol/L.

Task: Tell me pKd reported for RS3, rcSso7d-based RBP4 binding interaction partner, soluble protein (designed binder, Expressed in E. coli as His6-SUMO fusion; Monomeric by SEC) ATVKLTYQGEEKQVDISKIKRVARYGQNIYFSYDEGGGAYDYGAVSEKDAPKELLQMLEKQ
Output: 5.21
